Each recorded value in this set is attributed to the kinase profiling compilation of Christmann-Franck et al. (2016).

# Test system: KIT (human), P10721 [A829P]
# Sequence (P10721 whole entry A829P, looked up): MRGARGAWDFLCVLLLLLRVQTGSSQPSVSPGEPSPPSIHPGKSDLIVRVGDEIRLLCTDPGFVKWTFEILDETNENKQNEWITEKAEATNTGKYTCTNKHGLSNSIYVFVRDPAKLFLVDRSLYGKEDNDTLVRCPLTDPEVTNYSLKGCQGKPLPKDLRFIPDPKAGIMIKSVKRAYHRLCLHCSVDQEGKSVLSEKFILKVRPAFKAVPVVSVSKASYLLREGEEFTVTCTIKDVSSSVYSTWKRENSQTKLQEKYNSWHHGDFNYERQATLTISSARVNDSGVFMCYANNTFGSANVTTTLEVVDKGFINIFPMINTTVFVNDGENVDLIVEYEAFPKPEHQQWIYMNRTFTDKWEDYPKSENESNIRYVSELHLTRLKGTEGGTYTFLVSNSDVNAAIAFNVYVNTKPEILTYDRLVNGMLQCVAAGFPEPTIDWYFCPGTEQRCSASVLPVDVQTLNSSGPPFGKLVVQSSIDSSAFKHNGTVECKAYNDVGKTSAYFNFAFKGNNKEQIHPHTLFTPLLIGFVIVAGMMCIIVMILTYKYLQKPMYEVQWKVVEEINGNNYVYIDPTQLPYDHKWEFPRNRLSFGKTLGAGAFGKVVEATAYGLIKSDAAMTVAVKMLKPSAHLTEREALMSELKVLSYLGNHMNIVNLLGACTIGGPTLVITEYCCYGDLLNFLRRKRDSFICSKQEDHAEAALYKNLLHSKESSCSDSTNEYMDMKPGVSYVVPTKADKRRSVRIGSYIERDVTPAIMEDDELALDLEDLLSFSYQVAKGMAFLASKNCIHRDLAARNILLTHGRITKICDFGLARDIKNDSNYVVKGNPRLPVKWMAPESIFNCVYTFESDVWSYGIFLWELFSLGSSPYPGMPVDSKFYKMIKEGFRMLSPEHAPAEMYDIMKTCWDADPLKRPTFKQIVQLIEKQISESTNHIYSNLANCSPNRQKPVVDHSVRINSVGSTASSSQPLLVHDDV
# measurement_notes: KINOMEscan competition binding
# condition_info: compound 1.0 µM
I'd appreciate it if you could supply kinase still bound, per cent of control values for the items below.
Note: unit % is implicit; provide only the numeric part.

Query: Recorded kinase still bound, per cent of control for CN(C)C/C=C/C(=O)Nc1cccc(C(=O)Nc2ccc(Nc3nccc(/C(C#N)=C4\Nc5ccccc5S4)n3)cc2)c1 , please?
Response: 100

Query: Recorded kinase still bound, per cent of control for CN(C)C/C=C/C(=O)Nc1cccc(C(=O)Nc2ccc(Nc3nccc(-c4cccnc4)n3)cc2)c1 , please?
Response: 78

Query: Recorded kinase still bound, per cent of control for Cc1cc(NC(=O)c2cccc(NC(=O)/C=C/CN(C)C)c2)ccc1Nc1nccc(-c2cccnc2)n1 , please?
Response: 69

Query: Recorded kinase still bound, per cent of control for CN(C)C/C=C/C(=O)Nc1cccc(C(=O)Nc2ccc(Nc3nccc(-c4c(-c5ccccc5)nn5ccccc45)n3)cc2)c1 , please?
Response: 71

* * *

# system: BMPR1A (human)
# measurement_notes: KINOMEscan competition binding
# condition_info: compound 1.0 µM
I'd appreciate it if you could supply kinase still bound, per cent of control values for the items below.
Note: unit % is implicit; provide only the numeric part.

Query: Recorded kinase still bound, per cent of control for Cc1cc(NC(=O)c2cccc(NC(=O)/C=C/CN(C)C)c2)ccc1Nc1nccc(-c2cccnc2)n1 , please?
Response: 100

Query: Recorded kinase still bound, per cent of control for CN(C)C/C=C/C(=O)Nc1cccc(C(=O)Nc2ccc(Nc3nccc(/C(C#N)=C4\Nc5ccccc5S4)n3)cc2)c1 , please?
Response: 100

Query: Recorded kinase still bound, per cent of control for CN(C)C/C=C/C(=O)Nc1cccc(C(=O)Nc2ccc(Nc3nccc(-c4c(-c5ccccc5)nn5ccccc45)n3)cc2)c1 , please?
Response: 66

Query: Recorded kinase still bound, per cent of control for CN(C)C/C=C/C(=O)Nc1cccc(C(=O)Nc2ccc(Nc3nccc(-c4cccnc4)n3)cc2)c1 , please?
Response: 46

* * *

# system: MAP2K2 (human)
# measurement_notes: KINOMEscan competition binding
# condition_info: compound 1.0 µM
assay_readout: kinase still bound, per cent of control (%)
Note: unit % is implicit; provide only the numeric part.

Query: Recorded kinase still bound, per cent of control for CN(C)C/C=C/C(=O)Nc1cccc(C(=O)Nc2ccc(Nc3nccc(-c4c(-c5ccccc5)nn5ccccc45)n3)cc2)c1 , please?
Response: 88

Query: Recorded kinase still bound, per cent of control for Cc1cc(NC(=O)c2cccc(NC(=O)/C=C/CN(C)C)c2)ccc1Nc1nccc(-c2cccnc2)n1 , please?
Response: 91

Query: Recorded kinase still bound, per cent of control for CN(C)C/C=C/C(=O)Nc1cccc(C(=O)Nc2ccc(Nc3nccc(-c4cccnc4)n3)cc2)c1 , please?
Response: 58

Query: Recorded kinase still bound, per cent of control for CN(C)C/C=C/C(=O)Nc1cccc(C(=O)Nc2ccc(Nc3nccc(/C(C#N)=C4\Nc5ccccc5S4)n3)cc2)c1 , please?
Response: 100

* * *

# system: CSNK2A1 (human)
# measurement_notes: KINOMEscan competition binding
# condition_info: compound 1.0 µM
I'd appreciate it if you could supply kinase still bound, per cent of control values for the items below.
Note: unit % is implicit; provide only the numeric part.

Query: Recorded kinase still bound, per cent of control for CN(C)C/C=C/C(=O)Nc1cccc(C(=O)Nc2ccc(Nc3nccc(/C(C#N)=C4\Nc5ccccc5S4)n3)cc2)c1 , please?
Response: 27

Query: Recorded kinase still bound, per cent of control for Cc1cc(NC(=O)c2cccc(NC(=O)/C=C/CN(C)C)c2)ccc1Nc1nccc(-c2cccnc2)n1 , please?
Response: 57

Query: Recorded kinase still bound, per cent of control for CN(C)C/C=C/C(=O)Nc1cccc(C(=O)Nc2ccc(Nc3nccc(-c4c(-c5ccccc5)nn5ccccc45)n3)cc2)c1 , please?
Response: 74

Query: Recorded kinase still bound, per cent of control for CN(C)C/C=C/C(=O)Nc1cccc(C(=O)Nc2ccc(Nc3nccc(-c4cccnc4)n3)cc2)c1 , please?
Response: 17

* * *

I'd appreciate it if you could supply kinase still bound, per cent of control values for the items below.
# system: MAK (human)
# measurement_notes: KINOMEscan competition binding
# condition_info: compound 1.0 µM
Note: unit % is implicit; provide only the numeric part.

Query: Recorded kinase still bound, per cent of control for CN(C)C/C=C/C(=O)Nc1cccc(C(=O)Nc2ccc(Nc3nccc(/C(C#N)=C4\Nc5ccccc5S4)n3)cc2)c1 , please?
Response: 93

Query: Recorded kinase still bound, per cent of control for CN(C)C/C=C/C(=O)Nc1cccc(C(=O)Nc2ccc(Nc3nccc(-c4c(-c5ccccc5)nn5ccccc45)n3)cc2)c1 , please?
Response: 100

Query: Recorded kinase still bound, per cent of control for CN(C)C/C=C/C(=O)Nc1cccc(C(=O)Nc2ccc(Nc3nccc(-c4cccnc4)n3)cc2)c1 , please?
Response: 5.6

Query: Recorded kinase still bound, per cent of control for Cc1cc(NC(=O)c2cccc(NC(=O)/C=C/CN(C)C)c2)ccc1Nc1nccc(-c2cccnc2)n1 , please?
Response: 100

* * *

assay_readout: pIC50
On this scale, pIC50 is minus log10 of a concentration expressed in M (mol/L).

Query: Form entry - test system: RIPK2 (human); read-out: pIC50; compound: CN(C)C/C=C/C(=O)Nc1cccc(C(=O)Nc2ccc(Nc3nccc(-c4cccnc4)n3)cc2)c1
Response: 6.14

Query: Form entry - test system: RIPK2 (human); read-out: pIC50; compound: CN(C)C/C=C/C(=O)Nc1cccc(C(=O)Nc2ccc(Nc3nccc(-c4c(-c5ccccc5)nn5ccccc45)n3)cc2)c1
Response: 7.38

* * *

I'd appreciate it if you could supply kinase still bound, per cent of control values for the items below.
# system: MAP3K4 (human)
# measurement_notes: KINOMEscan competition binding
# condition_info: compound 1.0 µM
Note: unit % is implicit; provide only the numeric part.

Query: Recorded kinase still bound, per cent of control for CN(C)C/C=C/C(=O)Nc1cccc(C(=O)Nc2ccc(Nc3nccc(/C(C#N)=C4\Nc5ccccc5S4)n3)cc2)c1 , please?
Response: 100

Query: Recorded kinase still bound, per cent of control for CN(C)C/C=C/C(=O)Nc1cccc(C(=O)Nc2ccc(Nc3nccc(-c4c(-c5ccccc5)nn5ccccc45)n3)cc2)c1 , please?
Response: 80

Query: Recorded kinase still bound, per cent of control for CN(C)C/C=C/C(=O)Nc1cccc(C(=O)Nc2ccc(Nc3nccc(-c4cccnc4)n3)cc2)c1 , please?
Response: 88

Query: Recorded kinase still bound, per cent of control for Cc1cc(NC(=O)c2cccc(NC(=O)/C=C/CN(C)C)c2)ccc1Nc1nccc(-c2cccnc2)n1 , please?
Response: 100

* * *

# System: PIK3CA (human), P42336 [C420R]
# Sequence (P42336 whole entry C420R, looked up): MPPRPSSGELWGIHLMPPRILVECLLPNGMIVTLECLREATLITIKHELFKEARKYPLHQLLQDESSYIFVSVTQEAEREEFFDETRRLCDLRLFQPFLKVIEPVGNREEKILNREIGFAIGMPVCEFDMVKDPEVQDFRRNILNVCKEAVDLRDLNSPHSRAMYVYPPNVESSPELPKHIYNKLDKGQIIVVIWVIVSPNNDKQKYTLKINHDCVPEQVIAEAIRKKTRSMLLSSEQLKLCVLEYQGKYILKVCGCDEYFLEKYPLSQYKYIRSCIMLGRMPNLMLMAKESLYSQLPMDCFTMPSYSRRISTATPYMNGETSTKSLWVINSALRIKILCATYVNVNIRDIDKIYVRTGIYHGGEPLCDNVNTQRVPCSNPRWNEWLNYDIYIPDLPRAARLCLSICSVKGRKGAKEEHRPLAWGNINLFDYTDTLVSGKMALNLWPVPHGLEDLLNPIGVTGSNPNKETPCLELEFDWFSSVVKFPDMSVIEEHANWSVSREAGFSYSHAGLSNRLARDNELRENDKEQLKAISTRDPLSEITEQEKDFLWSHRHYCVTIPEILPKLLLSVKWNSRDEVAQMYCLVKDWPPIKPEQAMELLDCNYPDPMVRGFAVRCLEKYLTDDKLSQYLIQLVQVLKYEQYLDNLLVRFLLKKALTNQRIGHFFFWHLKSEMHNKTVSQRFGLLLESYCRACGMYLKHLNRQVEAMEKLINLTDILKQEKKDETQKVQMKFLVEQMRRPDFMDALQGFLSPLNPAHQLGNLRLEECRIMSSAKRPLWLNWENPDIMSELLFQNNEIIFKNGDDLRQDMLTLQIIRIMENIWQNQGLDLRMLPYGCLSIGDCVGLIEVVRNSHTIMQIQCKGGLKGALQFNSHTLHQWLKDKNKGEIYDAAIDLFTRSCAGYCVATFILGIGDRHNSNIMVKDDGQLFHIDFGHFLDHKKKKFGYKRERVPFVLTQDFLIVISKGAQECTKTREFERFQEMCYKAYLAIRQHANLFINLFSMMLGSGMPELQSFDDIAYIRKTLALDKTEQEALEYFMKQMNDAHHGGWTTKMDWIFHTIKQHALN
# measurement_notes: KINOMEscan competition binding
# condition_info: compound 1.0 µM
assay_readout: kinase still bound, per cent of control (%)
Note: unit % is implicit; provide only the numeric part.

Query: Form entry - test system: PIK3CA (human), P42336 [C420R]; read-out: kinase still bound, per cent of control; compound: CN(C)C/C=C/C(=O)Nc1cccc(C(=O)Nc2ccc(Nc3nccc(-c4c(-c5ccccc5)nn5ccccc45)n3)cc2)c1
Response: 100

Query: Form entry - test system: PIK3CA (human), P42336 [C420R]; read-out: kinase still bound, per cent of control; compound: CN(C)C/C=C/C(=O)Nc1cccc(C(=O)Nc2ccc(Nc3nccc(/C(C#N)=C4\Nc5ccccc5S4)n3)cc2)c1
Response: 100

Query: Form entry - test system: PIK3CA (human), P42336 [C420R]; read-out: kinase still bound, per cent of control; compound: CN(C)C/C=C/C(=O)Nc1cccc(C(=O)Nc2ccc(Nc3nccc(-c4cccnc4)n3)cc2)c1
Response: 100

Query: Form entry - test system: PIK3CA (human), P42336 [C420R]; read-out: kinase still bound, per cent of control; compound: Cc1cc(NC(=O)c2cccc(NC(=O)/C=C/CN(C)C)c2)ccc1Nc1nccc(-c2cccnc2)n1
Response: 99

* * *

assay_readout: pIC50
On this scale, pIC50 is minus log10 of a concentration expressed in M (mol/L).

Query: Form entry - test system: CSNK1E (human) (UniProt P49674); read-out: pIC50; molecule: CN(C)C/C=C/C(=O)Nc1cccc(C(=O)Nc2ccc(Nc3nccc(-c4c(-c5ccccc5)nn5ccccc45)n3)cc2)c1
Sequence (P49674 whole entry, looked up): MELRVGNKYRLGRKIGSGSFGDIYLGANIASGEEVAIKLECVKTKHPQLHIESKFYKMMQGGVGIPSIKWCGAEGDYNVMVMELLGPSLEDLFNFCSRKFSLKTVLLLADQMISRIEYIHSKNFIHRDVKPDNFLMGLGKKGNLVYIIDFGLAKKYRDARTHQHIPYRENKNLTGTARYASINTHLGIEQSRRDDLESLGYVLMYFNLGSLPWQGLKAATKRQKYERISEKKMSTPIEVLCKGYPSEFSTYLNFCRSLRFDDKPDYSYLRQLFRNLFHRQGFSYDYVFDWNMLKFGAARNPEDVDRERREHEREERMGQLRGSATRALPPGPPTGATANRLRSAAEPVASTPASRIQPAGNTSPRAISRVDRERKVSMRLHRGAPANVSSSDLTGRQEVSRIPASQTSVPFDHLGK
Response: 7.08

* * *

assay_readout: pIC50
On this scale, pIC50 is minus log10 of a concentration expressed in M (mol/L).

Query: Form entry - test system: PRKX (human); read-out: pIC50; compound: Cc1cc(NC(=O)c2cccc(NC(=O)/C=C/CN(C)C)c2)ccc1Nc1nccc(-c2cccnc2)n1
Response: 5.12

* * *

# Tested on: KIT (human), P10721 [V559D/V654A]
# Sequence (P10721 whole entry V559D/V654A, looked up): as the sequence (P10721 whole entry A829P, looked up) above, with V559D, V654A, P829A counted along it
# measurement_notes: KINOMEscan competition binding
# condition_info: compound 1.0 µM
assay_readout: kinase still bound, per cent of control (%)
Note: unit % is implicit; provide only the numeric part.

Query: Recorded kinase still bound, per cent of control for Cc1cc(NC(=O)c2cccc(NC(=O)/C=C/CN(C)C)c2)ccc1Nc1nccc(-c2cccnc2)n1 , please?
Response: 81

Query: Recorded kinase still bound, per cent of control for CN(C)C/C=C/C(=O)Nc1cccc(C(=O)Nc2ccc(Nc3nccc(-c4cccnc4)n3)cc2)c1 , please?
Response: 67

Query: Recorded kinase still bound, per cent of control for CN(C)C/C=C/C(=O)Nc1cccc(C(=O)Nc2ccc(Nc3nccc(-c4c(-c5ccccc5)nn5ccccc45)n3)cc2)c1 , please?
Response: 49

Query: Recorded kinase still bound, per cent of control for CN(C)C/C=C/C(=O)Nc1cccc(C(=O)Nc2ccc(Nc3nccc(/C(C#N)=C4\Nc5ccccc5S4)n3)cc2)c1 , please?
Response: 100
